# target.under.test: HIV-1 Env of isolate MGRM-A-001 (pseudovirus) (HIV-1)
# run.description: cell-based or functional assay
This listing pairs binders with measured IC50 (µg/mL), pseudovirus neutralization.

For orientation, consider the following solved cases.
{"columns": ["binder", "reported.metric", "value.reported"],
 "data": [
  ["PGT-127 (5145_B14) (antibody, V domains shown) VH: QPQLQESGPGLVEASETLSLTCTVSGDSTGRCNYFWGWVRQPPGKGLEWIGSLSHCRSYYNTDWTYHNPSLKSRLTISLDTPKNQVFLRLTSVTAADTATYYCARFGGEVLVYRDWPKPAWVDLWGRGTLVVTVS VL: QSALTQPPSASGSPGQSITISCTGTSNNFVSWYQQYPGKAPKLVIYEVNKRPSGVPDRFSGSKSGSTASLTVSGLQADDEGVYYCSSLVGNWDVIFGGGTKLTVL", "IC50 (µg/mL), pseudovirus neutralization", "> 50 µg/mL"],
  ["PGT-123 (4858_P08) (antibody, V domains shown) VH: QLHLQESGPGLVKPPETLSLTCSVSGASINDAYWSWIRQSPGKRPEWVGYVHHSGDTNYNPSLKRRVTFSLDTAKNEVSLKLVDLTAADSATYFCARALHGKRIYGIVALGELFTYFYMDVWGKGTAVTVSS VL: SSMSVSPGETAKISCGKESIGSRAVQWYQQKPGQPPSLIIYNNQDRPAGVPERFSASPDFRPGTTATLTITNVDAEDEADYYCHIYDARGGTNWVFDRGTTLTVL", "IC50 (µg/mL), pseudovirus neutralization", "> 50 µg/mL"]
]}

Respond only with IC50 (µg/mL), pseudovirus neutralization recorded for PGT-126 (5141_B17) (antibody, V domains shown) VH: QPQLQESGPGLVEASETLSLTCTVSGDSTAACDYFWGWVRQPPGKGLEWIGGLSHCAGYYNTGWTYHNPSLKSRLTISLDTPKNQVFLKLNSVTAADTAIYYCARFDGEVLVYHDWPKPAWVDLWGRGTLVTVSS VL: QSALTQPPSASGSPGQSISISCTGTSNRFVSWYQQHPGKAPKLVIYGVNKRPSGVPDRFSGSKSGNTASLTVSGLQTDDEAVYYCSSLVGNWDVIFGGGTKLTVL
> 50 µg/mL

Respond only with IC50 (µg/mL), pseudovirus neutralization recorded for PGT-125 (5123_A06) (antibody, V domains shown) VH: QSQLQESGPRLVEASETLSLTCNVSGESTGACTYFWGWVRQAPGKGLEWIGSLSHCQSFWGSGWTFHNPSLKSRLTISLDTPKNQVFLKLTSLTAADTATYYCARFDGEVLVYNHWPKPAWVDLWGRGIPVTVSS VL: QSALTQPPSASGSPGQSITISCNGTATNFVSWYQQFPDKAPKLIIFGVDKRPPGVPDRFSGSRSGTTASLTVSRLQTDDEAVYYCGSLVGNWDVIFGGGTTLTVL
12.4 µg/mL
